molecular target: Estrogen receptor (Rattus norvegicus) (UniProt P06211+Q62986); test: In vitro association constant when complexed with the Estrogen receptor in Sprague-Dawley rat; Inhibition less than 10% at a ratio of [3H]estradiol/substance of 10e-4 M; format: protein assay
This listing pairs molecules with measured inhibition.

>  <MOLECULE>
CCN1CN(CC)C(c2ccc(Cl)c(Cl)c2)C1c1ccc(Cl)c(Cl)c1 (stereo in doubt)

>  <OBSERVED_PROPERTY>
inhibition

>  <RESULT>
< 10%

$$$$
>  <MOLECULE>
CCN1CN(CC)C(c2ccc(Cl)cc2Cl)C1c1ccc(Cl)cc1Cl (stereo in doubt)

>  <OBSERVED_PROPERTY>
inhibition

>  <RESULT>
< 10%

$$$$
>  <MOLECULE>
CCNC(c1ccc(Cl)c(Cl)c1)C(NCC)c1ccc(Cl)c(Cl)c1 (stereo in doubt)

>  <OBSERVED_PROPERTY>
inhibition

>  <RESULT>
< 10%

$$$$

Any idea what its inhibition is? The molecule is CCN1CN(CC)C(c2cc(Cl)cc(Cl)c2)C1c1cc(Cl)cc(Cl)c1 (cis isomer)
< 10%

What value of measured inhibition is listed for CCNC(c1cc(Cl)cc(Cl)c1)C(NCC)c1cc(Cl)cc(Cl)c1 (stereo in doubt) ?
< 10%

Record request: inhibition value, item CCCCNC(c1ccc(Cl)cc1Cl)C(NCCCC)c1ccc(Cl)cc1Cl (stereo in doubt; 2d (d,l))
< 10%

Request the reported inhibition associated with CCCCNC(c1c(Cl)cccc1Cl)C(NCCCC)c1c(Cl)cccc1Cl (stereo in doubt; 2h (d,l))
< 10%

inhibition for CCCCN1CN(CCCC)C(c2c(Cl)cccc2Cl)C1c1c(Cl)cccc1Cl (stereo in doubt; cis) ?
< 10%

###

target: Estrogen receptor (Mus musculus) (UniProt O08537+P19785); assay: Uterotrophic effect in immature mice as uterine dry weight(mg) relative to body weight(g) at 2500 ug/day dose; assay type: functional, tissue-based; details: Uterus
Sequence (O08537 whole entry, looked up): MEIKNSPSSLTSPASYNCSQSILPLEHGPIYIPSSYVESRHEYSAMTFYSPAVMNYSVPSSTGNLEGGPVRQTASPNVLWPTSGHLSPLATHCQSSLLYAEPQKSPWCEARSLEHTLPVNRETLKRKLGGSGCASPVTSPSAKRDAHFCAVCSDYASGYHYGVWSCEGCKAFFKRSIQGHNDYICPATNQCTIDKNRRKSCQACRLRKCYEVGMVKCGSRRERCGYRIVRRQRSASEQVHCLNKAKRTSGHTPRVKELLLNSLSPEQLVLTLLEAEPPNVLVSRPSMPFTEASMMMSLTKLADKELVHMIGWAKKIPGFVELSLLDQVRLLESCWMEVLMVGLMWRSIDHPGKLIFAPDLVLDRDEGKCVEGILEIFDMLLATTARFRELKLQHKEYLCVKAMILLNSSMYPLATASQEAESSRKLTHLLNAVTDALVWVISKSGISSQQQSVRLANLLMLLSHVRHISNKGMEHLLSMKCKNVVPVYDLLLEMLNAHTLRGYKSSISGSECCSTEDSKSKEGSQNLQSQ
Sequence (P19785 whole entry, looked up): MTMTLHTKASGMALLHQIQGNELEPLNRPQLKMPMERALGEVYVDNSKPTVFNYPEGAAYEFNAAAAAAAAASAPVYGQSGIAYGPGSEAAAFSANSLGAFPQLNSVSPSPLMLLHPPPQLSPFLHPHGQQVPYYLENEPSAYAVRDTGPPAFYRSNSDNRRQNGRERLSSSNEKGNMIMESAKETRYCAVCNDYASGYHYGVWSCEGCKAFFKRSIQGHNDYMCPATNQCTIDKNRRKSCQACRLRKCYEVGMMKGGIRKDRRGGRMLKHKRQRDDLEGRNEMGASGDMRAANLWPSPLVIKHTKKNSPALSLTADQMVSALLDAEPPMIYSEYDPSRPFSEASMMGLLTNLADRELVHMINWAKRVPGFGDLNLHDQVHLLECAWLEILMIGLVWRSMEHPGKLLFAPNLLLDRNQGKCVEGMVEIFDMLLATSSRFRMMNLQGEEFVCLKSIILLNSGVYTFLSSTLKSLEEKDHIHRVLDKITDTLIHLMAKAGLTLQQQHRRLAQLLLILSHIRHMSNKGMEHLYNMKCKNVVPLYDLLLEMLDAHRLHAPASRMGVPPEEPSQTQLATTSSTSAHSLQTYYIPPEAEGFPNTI
OBSERVED_PROPERTY: Effect
Give only the figure.

>  <MOLECULE>
CCCN1CN(CCC)C(c2c(Cl)cccc2Cl)C1c1c(Cl)cccc1Cl (stereo in doubt)

>  <Effect>
19.7

$$$$
>  <MOLECULE>
CCCNC(c1c(Cl)cccc1Cl)C(NCCC)c1c(Cl)cccc1Cl (stereo in doubt)

>  <Effect>
31.3

$$$$

Please examine the following record next.
Dear colleague, I am looking for the recorded Effect of the following molecule: CCN1CN(CC)C(c2c(Cl)cccc2Cl)C1c1c(Cl)cccc1Cl (cis isomer)
22.3
